What selectivity ratio was measured for each of the following?
assay: Selectivity index, ratio of IC50 for CHO cells to IC50 for Plasmodium falciparum NF54 infected in human erythrocytes; type: toxicity, cell-based; details: Chinese hamster, read-out: Ratio IC50
Give the figure only, with no unit attached.

Please give the documented selectivity ratio of COC(=O)CC[C@@H](C)[C@H]1CC[C@@H]2[C@H]3[C@H](OC(C)=O)C[C@H]4C[C@H](OC(C)=O)CC[C@]4(C)[C@H]3C[C@H](OC(C)=O)[C@@]21C
40.9

For the compound CC(=O)OC(C)(C)/C=C/C(=O)[C@](C)(O)[C@H]1[C@H](O)C[C@@]2(C)[C@@H]3CC=C4[C@@H](C[C@H](O)C(=O)C4(C)C)[C@]3(C)C(=O)C[C@]12C , give its reported selectivity ratio.
1.43

Specify reported selectivity ratio for the compound shown: CC(=O)OC(C)(C)/C=C/C(=O)[C@](C)(O)[C@H]1[C@H](O)C[C@@]2(C)[C@@H]3CC=C4[C@@H](C[C@H](O)C(=O)C4(C)C)[C@]3(CO)C(=O)C[C@]12C
18.9

Supply recorded selectivity ratio for CC(=O)OC(C)(C)/C=C/C(=O)[C@](C)(O)[C@H]1[C@@H](O)C[C@@]2(C)[C@@H]3CC=C4[C@@H](CC[C@H](O)C4(C)C)[C@]3(CO)C(=O)C[C@]12C here.
4.83

====

system: CHO; experiment: Cytotoxicity against CHO cells by MTT assay; format: cell-based; conditions: Cricetulus griseus
QUANTITY_KIND: IC50
A complete answer gives the number and then names the unit.

Indicate its recorded IC50; the compound in question is CC(=O)O[C@H]1C[C@@]2(C)[C@@H](C[C@@H](O)[C@H]3[C@@]4(C)CC[C@@H](O)[C@@H](C)[C@@H]4CC[C@@]32C)/C1=C(\CCC=C(C)C)C(=O)O
194 µM

Hello, please tell me recorded IC50 for this one: CC(=O)OC(C)(C)/C=C/C(=O)[C@](C)(O)[C@H]1[C@H](O)C[C@@]2(C)[C@@H]3CC=C4[C@@H](C[C@H](O)C(=O)C4(C)C)[C@]3(C)C(=O)C[C@]12C
1.99 µM

Please list IC50 recorded for the compound CC(=O)OC(C)(C)/C=C/C(=O)[C@](C)(O)[C@H]1[C@@H](O)C[C@@]2(C)[C@@H]3CC=C4[C@@H](CC[C@H](O)C4(C)C)[C@]3(CO)C(=O)C[C@]12C
8.51 µM

Identify the reported IC50 for the following entry. CC(=O)OC(C)(C)/C=C/C(=O)[C@](C)(O)[C@H]1[C@H](O)C[C@@]2(C)[C@@H]3CC=C4[C@@H](C[C@H](O)C(=O)C4(C)C)[C@]3(CO)C(=O)C[C@]12C
55.2 µM

Provide one value: measured IC50 of COC(=O)CC[C@@H](C)[C@H]1CC[C@@H]2[C@H]3[C@H](OC(C)=O)C[C@H]4C[C@H](OC(C)=O)CC[C@]4(C)[C@H]3C[C@H](OC(C)=O)[C@@]21C
141 µM
